The reported measurements were obtained from patent US6534524B1.

MEASUREMENT_DESCRIPTION: Determination of inhibitor concentration in mouse plasma after intraperitoneal and oral dosing
Type: in vivo
CONDITION_LABEL: female, PO, 50 mg/kg, vehicle CMC
OBSERVATION_TYPE: AUC(0-t)

"Cc1cc(C(=O)Nc2cccc(C(=O)c3ccc4c(/C=C/c5ccccn5)n[nH]c4c3)c2)n(C)n1.Cl" yielded AUC(0-t) of 276 µg·h/mL

----------
MEASUREMENT_DESCRIPTION: Determination of inhibitor concentration in mouse plasma after intraperitoneal and oral dosing
Assay type: in vivo
CONDITION_LABEL: PO, 50 mg/kg, vehicle PEG400:H2O pH 2.3 60:40
As shown below, each of these molecules has a reported AUClast value.
// note: answer is a bare numeric in ng·h/mL

# example entries with known answers
>>> measured_value("Cc1cc(C(=O)Nc2cccc(C(=O)c3ccc4c(/C=C/c5ccccn5)n[nH]c4c3)c2)n[nH]1")
508
>>> measured_value("O=C(Nc1cccc(C(=O)c2ccc3c(-c4nc5cccnc5[nH]4)n[nH]c3c2)c1)c1ccccc1")
46
>>> measured_value("O=C(c1cccc(NC(=O)c2ccccn2)c1)c1ccc2c(/C=C/c3ccccc3)n[nH]c2c1")
19
>>> measured_value("O=C(Nc1cccc(C(=O)c2ccc3c(/C=C/c4ccccc4)n[nH]c3c2)c1)c1ccncc1")
5889
>>> measured_value("CC(=O)c1ccc(C(=O)Nc2cccc(C(=O)c3ccc4c(/C=C/c5ccccn5)n[nH]c4c3)c2)s1 [Example 41(e)]")
302
>>> measured_value("O=C(c1cccc(NC(=O)c2ccccn2)c1)c1ccc2c(/C=C/c3ccccn3)n[nH]c2c1")
289
>>> measured_value("O=C(c1cccc(NC(=O)c2cccc3[nH]ccc23)c1)c1ccc2c(/C=C/c3ccccn3)n[nH]c2c1")
7072
>>> measured_value("O=C(Nc1cccc(C(=O)c2ccc3c(/C=N/n4cccc4)n[nH]c3c2)c1)c1ccccc1")
1636

"O=C(Nc1cccc(C(=O)c2ccc3c(-c4nc5ccccc5[nH]4)n[nH]c3c2)c1)c1ccccc1" yielded AUClast of 4747

"O=C(Nc1cccc(C(=O)c2ccc3c(/C=C/c4ccccn4)n[nH]c3c2)c1)c1ccncc1" yielded AUClast of 759

"C/C=C/C(=O)Nc1cccc(C(=O)c2ccc3c(/C=C/c4ccccn4)n[nH]c3c2)c1" yielded AUClast of 3182

"Cc1ccc2cc(NC(=O)c3ccccc3Sc3ccc4c(/C=C/c5ccccn5)n[nH]c4c3)ccc2n1" yielded AUClast of 3925

"O=C(Nc1cccc(C(=O)c2ccc3c(/C=C/c4ccccn4)n[nH]c3c2)c1)c1ccccc1" yielded AUClast of 8384

"O=C(Nc1cccc(Cl)c1)c1ccccc1Sc1ccc2c(/C=C/c3ccccn3)n[nH]c2c1" yielded AUClast of 4744
